molecular target: human topoisomerase I (Homo sapiens, UniProt P11387); construct: purchased Inspiralis Limited, UK (assay run by the vendor as a service); test: DNA relaxation assay on human topoisomerase I (gel based, supercoiled pBR322); assay type: biochemical; conditions: ±SD, n = 2; relaxation of supercoiled pBR322, 37 °C, 30 min, 10 % DMSO; read-out: IC50 [µM] Topo I
Sequence (P11387 whole entry): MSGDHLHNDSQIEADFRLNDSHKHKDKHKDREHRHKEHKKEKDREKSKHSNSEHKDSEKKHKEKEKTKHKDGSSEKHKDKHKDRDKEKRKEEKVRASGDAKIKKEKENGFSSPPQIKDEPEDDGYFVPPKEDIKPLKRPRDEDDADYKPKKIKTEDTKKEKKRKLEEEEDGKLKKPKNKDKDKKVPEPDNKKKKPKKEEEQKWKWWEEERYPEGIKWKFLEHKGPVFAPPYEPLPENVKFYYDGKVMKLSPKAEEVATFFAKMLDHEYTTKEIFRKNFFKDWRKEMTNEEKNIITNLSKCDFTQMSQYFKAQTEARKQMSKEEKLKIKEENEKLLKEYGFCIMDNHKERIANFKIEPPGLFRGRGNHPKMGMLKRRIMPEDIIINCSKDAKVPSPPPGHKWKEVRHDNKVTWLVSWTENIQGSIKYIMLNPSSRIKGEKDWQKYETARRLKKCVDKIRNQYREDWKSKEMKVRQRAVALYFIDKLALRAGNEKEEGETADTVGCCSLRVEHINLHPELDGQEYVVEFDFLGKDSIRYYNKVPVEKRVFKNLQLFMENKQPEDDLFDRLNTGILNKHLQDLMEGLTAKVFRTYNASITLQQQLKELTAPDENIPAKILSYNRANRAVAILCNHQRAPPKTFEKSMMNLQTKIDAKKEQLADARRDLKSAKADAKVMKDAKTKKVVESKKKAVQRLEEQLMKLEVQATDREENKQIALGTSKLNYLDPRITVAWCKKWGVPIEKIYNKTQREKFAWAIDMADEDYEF
Kindly state IC50 for each of the entries shown.
One number for each entry, in µM.

Consider the worked cases shown below.
Compound: CCC(C)C(=O)OCC12C(O)CC(C)(C)CC1C1=CCC3C4(C)CCC(OC5OC(C(=O)O)C(OC6OC(CO)C(O)C6O)C(OC6OCC(O)C(O)C6O)C5OC5OC(CO)C(O)C(O)C5O)C(C)(C)C4CCC3(C)C1(C)C(O)C2O (stereo not shown) [Compound 3, pittangretoside F]
IC50 (µM): 16.8
--
Compound: CC=C(C)C(=O)OC1C(OC(C)=O)C2(CO)C(CC1(C)C)C1=CCC3C4(C)CCC(OC5OC(C(=O)O)C(OC6OC(CO)C(O)C6O)C(OC6OCC(O)C(O)C6O)C5OC5OC(CO)C(O)C(O)C5O)C(C)(C)C4CCC3(C)C1(C)C(O)C2O (stereo not shown) [Compound 4, IIIA3]
IC50 (µM): 8.6
--
Compound: CC=C(C)C(=O)OC1CC(C)(C)CC2C3=CCC4C5(C)CCC(OC6OC(C(=O)O)C(OC7OC(CO)C(O)C7O)C(OC7OCC(O)C(O)C7O)C6OC6OC(CO)C(O)C(O)C6O)C(C)(C)C5CCC4(C)C3(C)C(O)C(O)C12CO (stereo not shown) [Compound 1, pittangretoside A]
IC50 (µM): 7.5

Request: Which IC50 is reported for this compound? CCC(C)C(=O)OC1CC(C)(C)CC2C3=CCC4C5(C)CCC(OC6OC(C(=O)O)C(OC7OC(CO)C(O)C7O)C(OC7OCC(O)C(O)C7O)C6OC6OC(CO)C(O)C(O)C6O)C(C)(C)C5CCC4(C)C3(C)C(O)C(O)C12CO (stereo not shown) [Compound 8]
Response: 2.8
